Data export: pIC50 values recorded with Glycogen synthase kinase-3 beta (Homo sapiens).
Sequence (P49841 whole entry): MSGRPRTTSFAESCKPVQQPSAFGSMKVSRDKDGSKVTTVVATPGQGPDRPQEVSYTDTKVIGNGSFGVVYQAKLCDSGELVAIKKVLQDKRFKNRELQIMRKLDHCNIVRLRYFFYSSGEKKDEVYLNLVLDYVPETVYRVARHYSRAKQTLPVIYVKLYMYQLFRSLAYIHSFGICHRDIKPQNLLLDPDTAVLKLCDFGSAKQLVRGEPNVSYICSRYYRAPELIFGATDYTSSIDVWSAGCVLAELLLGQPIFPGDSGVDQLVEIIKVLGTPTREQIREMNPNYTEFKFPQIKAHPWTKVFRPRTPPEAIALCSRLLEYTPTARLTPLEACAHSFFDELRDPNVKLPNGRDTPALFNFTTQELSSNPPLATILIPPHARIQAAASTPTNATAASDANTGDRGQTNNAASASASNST
pIC50 is a log-scale quantity: -log10 of the concentration expressed in molar.

Worked cases, pIC50 given:
1. Cc1ccc2c(c1)c(C1=C(c3ccccc3F)C(=O)NC1=O)cn2CCCn1ccnc1	4.33
2. COc1ccc(C2=C(c3cn(CCCn4ccnc4)c4ccc(Br)cc34)C(=O)NC2=O)cc1OC	7.29
3. O=C1NC(=O)C(c2cn(CCCn3ccnc3)c3ccc(Br)cc23)=C1c1ccc(F)cc1	6.85
4. O=C1NC(=O)C(c2cn(CCCn3ccnc3)c3ccc(Br)cc23)=C1c1ccccc1[N+](=O)[O-]	7.18

Could you now look at the following molecule, please?
Exam item: Find the recorded pIC50 belonging to COc1ccc(C2=C(c3cn(CCCn4ccnc4)c4ccc(OC)cc34)C(=O)NC2=O)cc1 and report it.
Marked response: 7.85
